Test system: OVCAR-4 ovarian
Assay: NCI tumour cell line growth inhibition, 48 h
measuredQuantity: TGI (µM)

[[record]]
molecule = "O=C1C(NCCc2ccc(O)c(O)c2)=CC(=O)c2ncccc21"
measuredquantity = "TGI"
qualifyingsign = "="
recordednumber = 50.9

[[record]]
molecule = "CCCCCCCCCCCCCCCCCCNc1ccn(C2OC(COP(=O)(O)OCC3CCC(n4cnc5c(=O)[nH]cnc54)O3)C(O)C2O)c(=O)n1 (stereo not given)"
measuredquantity = "TGI"
qualifyingsign = ">"
recordednumber = 100

[[record]]
molecule = "COc1cccc(-c2ccc3c4c2O[C@H]2c5[nH]c6ccccc6c5C[C@@]5(O)[C@@H](C3)N(CC3CC3)CC[C@]425)c1"
measuredquantity = "TGI"
qualifyingsign = "="
recordednumber = 3.27

[[record]]
molecule = "CCOC(=O)C(Cc1c[nH]c2ccc(N(CCCl)CCCl)cc12)(NC(C)=O)C(=O)OCC"
measuredquantity = "TGI"
qualifyingsign = "="
recordednumber = 682

[[record]]
molecule = "Cc1c2c(cc3c1[nH]c1ccccc13)C=NCC2"
measuredquantity = "TGI"
qualifyingsign = "="
recordednumber = 53

[[record]]
molecule = "NC(=O)c1cc(Br)cc(C2CCCCC2)c1O"
measuredquantity = "TGI"
qualifyingsign = "="
recordednumber = 25.6

[[record]]
molecule = "N=c1nnc(=O)c2c(s1)-n1ncc(C(=O)O)c1NN2"
measuredquantity = "TGI"
qualifyingsign = ">"
recordednumber = 100

[[record]]
molecule = "COc1cc(OC)c2c(O)c3c(cc2c1)CC(C)(C)CC3=O"
measuredquantity = "TGI"
qualifyingsign = ">"
recordednumber = 100

[[record]]
molecule = "COC1CC2C=C(C)/C=C/C=C/C(=O)NC(c3ccccc3)C/C=C/CCC(O)CC(=O)C2=C1O (stereo not given)"
measuredquantity = "TGI"
qualifyingsign = "="
recordednumber = 1.08

[[record]]
molecule = "CN(C(=O)Cc1ccc(Cl)c(Cl)c1)[C@H]1CCCC[C@@H]1[N+]1(C)CCCC1"
measuredquantity = "TGI"
qualifyingsign = ">"
recordednumber = 100

